FYI, the data here is from paper PMC10814725.

system: TNF-α; assay: ELISA of TNF-α production in LPS-stimulated THP-1 cells; assay type: cell-based, human; details: THP-1 CC50 / TNF-α IC50
readout type: TNF-α SI (selectivity index, CC50/IC50)
Response field accepts a number only; no unit should be typed.

Suppose we examine the compound C[C@]12C3=CC[C@@H](c4ccoc4)[C@]3(C)CC[C@@H]1[C@@]1(C)C(=O)C=C[C@@]3(C)CO[C@@H]([C@H]2O)[C@H]13 ; what TNF-α SI (selectivity index, CC50/IC50) value has been reported?
2.66

Suppose we examine the compound CC(=O)O[C@@H]1[C@H](O)[C@H]2C(C)(C)C(=O)C=C[C@]2(C)[C@H]2CC[C@]3(C)C(=CC[C@H]3c3ccoc3)[C@]12C ; what TNF-α SI (selectivity index, CC50/IC50) value has been reported?
49.92

Suppose we examine the compound CC(=O)O[C@H]1[C@@H](OC(C)=O)[C@@]2(C)C3=CC[C@@H](c4ccoc4)[C@]3(C)CC[C@@H]2[C@@]2(C)C=CC(=O)C(C)(C)[C@H]12 ; what TNF-α SI (selectivity index, CC50/IC50) value has been reported?
2.53

Suppose we examine the compound CC(=O)O[C@H]1[C@@H](O)[C@@]2(C)C3=CC[C@@H](c4ccoc4)[C@]3(C)CC[C@@H]2[C@@]2(C)C=CC(=O)C(C)(C)[C@H]12 ; what TNF-α SI (selectivity index, CC50/IC50) value has been reported?
2.21

Suppose we examine the compound CC(=O)O[C@@H]1C[C@H]2C(C)(C)C(=O)C=C[C@]2(C)[C@H]2CC[C@]3(C)C(=CC[C@H]3C3CCOC3=O)[C@@]21C (stereo partly drawn) ; what TNF-α SI (selectivity index, CC50/IC50) value has been reported?
5.88

Suppose we examine the compound CC(=O)O[C@H]1[C@@H](OC(C)=O)[C@]2(C)[C@H](CC[C@@]3(C)[C@H](c4ccoc4)C[C@H]4O[C@@]423)[C@@]2(C)C=CC(=O)C(C)(C)[C@H]12 ; what TNF-α SI (selectivity index, CC50/IC50) value has been reported?
6.78
